# Assay Comment: soluble on expression in E. coli; label from the status in PepcDB or PDB records
Quantity: soluble on expression in E. coli

Example sequences with recorded soluble on expression in E. coli:
MSLASISLPVGGRLLPYELTGRPVPLKGRDAAAFPRVAFAAAHVVADPLADNDPWVTPAIDWERTLAFRHRLWDLGLGVAESMDTAQRGMGLGWPEARELIGRSLSEARGRSGALIACGAGTDHLVPGPNVTIDEILRAYESQIETIEAEGGRIILMASRALAAAAKGPEDYFRVYDRILSQVKEPVIIHWLGEMFDPALEGYWGNADHMAAMKTCLDVIEAHAAKVDGIKISLLSKKKEIVMRRQLPKGVRMYTGDDFNYAELISGDEEGYSDALLGIFDAIAPVASAALEALGGGRNGEFFELLDPTVPLSRHIFKAPTRFYKTGVVFLAYLNGLQDHFAMIGGQQSARSLVHLAELFRLADRAGVLQDPELAAGRMRRVLAVNGVAEGHHHHHH: soluble
MINIDPPSGDCPASGGSSTHNIVSESESRLAFKVKSSNNESYRVRPVYGFVDAKGKAKLDVNRLAGPPKEDKLVIQYARVPADETDPKAPFAAGAQQGEVVVKMVAT: not soluble
MGSDKIHHHHHHVKFRVERDVLAEAVTWTARSLSPRPPVPVLSGLLLKAEAGTVSLSSFDYETSARLEIPADISVEGTILVSGRLLADICRSLPSAPVDVETDGNKVTLTCRRSSFHLATMPEAEYPPLPALPTISGTVPGDSFAQAVSQVIIAASKDDTLPILTGVRMEIEDDLITLLATDRYRLAMREVPWKPVTPGISTSALVKAKTLNEVAKTLGNSGDINLALADDDSRLIGFESGGRTTTSLLVDGDYPKIRSLFPDATPIHATVQTQELVEAVRRVSLVAERNTPVRLAFTDGQLHLDAGTGEDAQASEELEAQLTGDEITVAFNPHYLIEGLSVIETKFVRFSFTTAPKPAMITAQVDADGEDQDDYRYLVMPVRLPN: not soluble
MSLKALIIMDMTNDFVFEKYEHEGKEYEGRLVAPLGKTIVEPIEALVKKVVNSGTVSLFRISKDHYDAFTNPELELKVAELGIDEVFMTGLVDEVCIYHNTLGFLERGFRTNVVRGCTAPFDPEKGRESLGELDACGTKMVDDIPSDIGVILLLEDEHDENSEEIKSGSWPPHSMKGTPGALTIKPIREALESREGHHHHHH: soluble

Task: Tell me the measured soluble on expression in E. coli of MQAGKPILYSYFRSSCSWRVRIALALKGIDYKTVPINLIKDGGQQFSKDFQALNPMKQVPTLKIDGITIHQSLAIIEYLEETRPTPRLLPQDPKKRASVRMISDLIAGGIQPLQNLSVLKQVGEEMQLTWAQNAITCGFNALEQILQSTAGIYCVGDEVTMADLCLVPQVANAERFKVDLTPYPTISSINKRLLVLEAFQVSHPCRQPDTPTELRA , please.
Result: soluble

Task: Could you tell me which soluble on expression in E. coli is on file for MALSKRELDELKPWIEKTVKRVLGFSEPTVVTAALNCVGKGMDKKKAADHLKPFLDDSTLRFVDKLFEAVEEGRSSRHS ?
Result: soluble
